# Target desc: KRas G12D (Homo sapiens, UniProt P01116, G12D)
# Sequence (P01116 1-169 isoform P01116-2 G12D): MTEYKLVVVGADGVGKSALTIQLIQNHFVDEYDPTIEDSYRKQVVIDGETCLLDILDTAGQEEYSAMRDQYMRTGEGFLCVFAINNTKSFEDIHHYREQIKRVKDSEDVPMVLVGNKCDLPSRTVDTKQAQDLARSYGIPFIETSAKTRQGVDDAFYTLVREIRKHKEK
# Assay notes: biochemical
Value kind: IC50

Please review the entries below; each comes with its answer.
CCc1c(F)ccc2cc(O)cc(-c3ncc4c(N5CCCn6nc(C(=O)NC)cc6C5)nc(OC[C@@]56CCCN5C[C@H](F)C6)nc4c3F)c12 [Example 339] : ≤ 2 nM
NS(=O)(=O)CC1CCCN(c2nc(OC[C@@]34CCCN3C[C@H](F)C4)nc3c(F)c(-c4cc(O)cc5ccc(F)c(Cl)c45)ncc23)C1 (stereo partly drawn) [Example 414] : ≤ 2 nM

I would be grateful if you could share the reported IC50 for CCc1c(F)ccc2cc(O)cc(-c3ncc4c(N5CCC[C@@](C)(O)C5)nc(OC[C@@]56CCCN5[C@@H](CO)CC6)nc4c3F)c12 [Example 301] .
≤ 2 nM

---

# Test system: pERK in PSN1 cells
# Assay notes: Inhibition of KRas phosphorylation of ERK (Cisbio HTRF pERK assay)
# Details: Homo sapiens, PSN1, 3 h, read-out: Inhibition (HTRF IC50) of KRas-mediated Phosphorylation of ERK, PSN1
IC50 overview

Please review the entries below; each comes with its answer.
Oc1cc(-c2ncc3c(N4CC5CC(O)CC4C5)nc(OC[C@@]45CCCN4C[C@H](F)C5)nc3c2F)c2c(Br)c(F)ccc2c1 (stereo partly drawn) [Example 403] : 3.81 µM
CCc1c(F)ccc2cc(O)cc(-c3ncc4c(N5CCCC6(CC(=O)N6)C5)nc(OCC5(CN(C)C)CC5)nc4c3F)c12 (stereo not drawn) [Example 513] : ≥ 10 µM
CCc1c(F)ccc2cc(O)cc(-c3ncc4c(N5CCC[C@@](C)(O)C5)nc(OC[C@@]56CCCN5[C@H](CO)CC6)nc4c3F)c12 [Example 304] : ≥ 10 µM
CCc1c(F)ccc2cc(O)cc(-c3ncc4c(NCCN5CCNC5=O)nc(OC[C@@]56CCCN5C[C@H](F)C6)nc4c3F)c12 [Example 372] : ≥ 10 µM
CCc1c(F)ccc2cc(O)cc(-c3ncc4c(N5CCC[C@]6(CNC(=O)C6)C5)nc(OC[C@]56CCCN5C[C@@H](O)C6)nc4c3F)c12 [Example 206] : ≥ 10 µM

Please find the next compound below.
I would be grateful if you could share the reported IC50 for CN(C)CC1(COc2nc(N3CCC[C@@](C)(O)C3)c3cnc(-c4cc(O)cc(Cl)c4C4CC4)c(F)c3n2)CC1 [Example 517] .
≥ 10 µM

---

pIC50 overview
# Target desc: KRas G12D (Homo sapiens, UniProt P01116, G12D);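 note: TR-FRET displacement binding assay on KRas, read after a one-hour incubation at room temperature, IC50 fitted from percent-of-control values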
# Assay notes: biochemical
pIC50: −log10 of the molar value.

I would be grateful if you could share the reported pIC50 for C#Cc1c(F)ccc2cc(O)cc(-c3ncc4c(N5CCCC6(CNC(=O)C6)C5)nc(OC[C@@]56CCCN5C[C@H](F)C6)nc4c3F)c12 (some centres unmarked) .
≥ 8.70

I would be grateful if you could share the reported pIC50 for C[C@@]1(O)CCCN(c2nc(OC[C@@]34CCCN3C[C@H](F)C4)nc3c(F)c(-c4cc(O)cc5ccc(F)c(Cl)c45)ncc23)C1 .
≥ 8.70

I would be grateful if you could share the reported pIC50 for CC1(O)COCCN(c2nc(OC[C@@]34CCCN3C[C@H](F)C4)nc3c(F)c(-c4cc(O)cc5ccc(F)c(Br)c45)ncc23)C1 (some centres unmarked) .
≥ 8.70

---

# Target desc: KRas G12R (Homo sapiens, UniProt P01116, G12R);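 note: TR-FRET displacement assay of compound binding to KRas, read after one hour at room temperature, potency from a four-parameter fit of percent-of-control values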
# Sequence (P01116 1-169 isoform P01116-2 G12R): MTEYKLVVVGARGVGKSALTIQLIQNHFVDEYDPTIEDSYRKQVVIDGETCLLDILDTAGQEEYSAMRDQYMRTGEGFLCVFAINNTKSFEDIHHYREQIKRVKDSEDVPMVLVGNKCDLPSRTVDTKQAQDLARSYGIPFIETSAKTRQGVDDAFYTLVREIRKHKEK
# Assay notes: biochemical
IC50 overview
The response must be a number in µM with no trailing unit.

Please review the entries below; each comes with its answer.
CCc1c(F)ccc2cc(O)cc(-c3ncc4c(Nc5ccc6cnn(C)c6c5)nc(OC[C@@]56CCCN5C[C@H](F)C6)nc4c3F)c12 : 0.013
OC1CC2CC1CN(c1nc(OCC34CCCN3CCC4)nc3c(F)c(-c4cccc5cccc(F)c45)ncc13)C2 (stereo not drawn) : 1.04
CCc1c(F)ccc2cc(O)cc(-c3ncc4c(N5CCC[C@@H](O)[C@H]5C)nc(OC[C@@]56CCCN5C[C@H](F)C6)nc4c3F)c12 : 0.01
C#Cc1c(F)ccc2cc(O)cc(-c3ncc4c(N5CCOC[C@](C)(O)C5)nc(OC[C@@]56CCCN5C[C@H](F)C6)nc4c3F)c12 (single isomer, unassigned) : 0.006
NS(=O)(=O)NC1CCCN(c2nc(OCC34CCCN3CCC4)nc3c(F)c(-c4cccc5cccc(F)c45)ncc23)C1 (stereo not drawn) : 0.777

Please find the next compound below.
I would be grateful if you could share the reported IC50 for CCc1c(F)ccc2cc(O)cc(-c3ncc4c(N5CCCC6(CCS(=N)(=O)C6)C5)nc(OC[C@@]56CCCN5C[C@H](F)C6)nc4c3F)c12 (stereo partly drawn) .
0.014

---

# System: pERK in ASPC1 cells
# Assay notes: Inhibition of KRas phosphorylation of ERK (Cisbio HTRF pERK assay)
# Details: Homo sapiens, ASPC1, read-out: Inhibition (HTRF IC50) of KRas-mediated Phosphorylation of ERK, AsPC-1
IC50 overview
The response must be a number in nM with no trailing unit.

Please review the entries below; each comes with its answer.
Oc1cc(-c2ncc3c(N4CC5CC(O)CC4C5)nc(OC[C@@]45CCCN4C[C@H](F)C5)nc3c2F)c2c(Cl)c(F)ccc2c1 (some centres unmarked) : 430
CCc1c(F)ccc2cc(O)cc(-c3ncc4c(NCC5NC(=O)NC5=O)nc(OC[C@@]56CCCN5C[C@H](F)C6)nc4c3F)c12 (some centres unmarked) : 1340
CCc1c(F)ccc2cc(O)cc(-c3ncc4c(NC5CCS(=O)(=O)C5)nc(OC[C@@]56CCCN5C[C@H](F)C6)nc4c3F)c12 (some centres unmarked) : 475
CCc1c(F)ccc2cc(O)cc(-c3ncc4c(NCC5CCNC5=O)nc(OC[C@@]56CCCN5C[C@H](F)C6)nc4c3F)c12 (some centres unmarked) : 4680
CCc1c(F)ccc2cc(O)cc(-c3ncc4c(N5CCCn6nc(C(=O)N(C)C)c(F)c6C5)nc(OC[C@@]56CCCN5C[C@H](F)C6)nc4c3F)c12 : 14
C[C@@H]1C[C@@H]1c1c(Cl)cc(O)cc1-c1ncc2c(N3CCCC(C)(O)C3)nc(OCC34CCCN3CCC4)nc2c1F (some centres unmarked) : 623
C#Cc1c(F)ccc2cc(O)cc(-c3ncc4c(N5CCOCC(C)(O)C5)nc(OC[C@@]56CCCN5C[C@H](F)C6)nc4c3F)c12 (some centres unmarked) : 25
CCc1c(F)ccc2cc(O)cc(-c3ncc4c(N5CCC[C@@](C)(O)C5)nc(OCC5(CN(C)C)CC5)nc4c3F)c12 : 8
CCc1c(F)ccc2cc(O)cc(-c3ncc4c(N5CCOC[C@@](C)(O)C5)nc(OCC5(CN(C)C)CC5)nc4c3F)c12 : 8
CCc1c(F)ccc2cc(O)cc(-c3ncc4c(N5CC6CC(O)C(C6)C5)nc(OC[C@@]56CCCN5C[C@H](F)C6)nc4c3F)c12 (some centres unmarked) : 15

I would be grateful if you could share the reported IC50 for Nc1cc2n(n1)CCCN(c1nc(OC[C@@]34CCCN3C[C@H](F)C4)nc3c(F)c(-c4cc(O)cc5ccc(F)c(Cl)c45)ncc13)C2 .
652

I would be grateful if you could share the reported IC50 for C#Cc1c(F)ccc2cc(O)cc(-c3ncc4c(N5CCC[C@@](C)(O)C5)nc(OC[C@@]56CCCN5C[C@H](F)C6)nc4c3F)c12 .
4

I would be grateful if you could share the reported IC50 for CCc1c(F)ccc2cc(O)cc(-c3ncc4c(N5CCCC6(CCS(=N)(=O)C6)C5)nc(OC[C@@]56CCCN5C[C@H](F)C6)nc4c3F)c12 (some centres unmarked) .
1550

---

IC50 overview
# Test system: pERK in ASPC1 cells
# Assay notes: Inhibition of KRas phosphorylation of ERK (Cisbio HTRF pERK assay)
# Details: Homo sapiens, ASPC1, read-out: Inhibition (HTRF IC50) of KRas-mediated Phosphorylation of ERK, AsPC-1
The response must be a number in nM with no trailing unit.

Please review the entries below; each comes with its answer.
CCc1c(F)ccc2cc(O)cc(-c3ncc4c(N5CCC[C@@](C)(O)C5)nc(OCC(C)(C)CN(C)C)nc4c3F)c12 : 60
CCc1c(F)ccc2cc(O)cc(-c3ncc4c(N5CCC[C@]6(CC(=O)N6)C5)nc(OCC5(CN6CCCC6)CC5)nc4c3F)c12 : 433
C#Cc1c(F)ccc2cc(O)cc(-c3ncc4c(N5CCCC6(CC(O)C6)C5)nc(OC[C@@]56CCCN5C[C@H](F)C6)nc4c3F)c12 (stereo partly shown) : 68
O=C1CC2(CCCN(c3nc(OC[C@@]45CCCN4C[C@H](F)C5)nc4c(F)c(-c5cc(O)cc6ccc(F)c(F)c56)ncc34)C2)N1 (stereo partly shown) : 204
CCc1c(F)ccc2cc(O)cc(-c3ncc4c(N5CC6C(=O)NC(=O)C6C5)nc(OC[C@@]56CCCN5C[C@H](F)C6)nc4c3F)c12 (stereo partly shown) : 57
CC1(O)COCCN(c2nc(OC[C@@]34CCCN3C[C@H](F)C4)nc3c(F)c(-c4cc(O)cc5ccc(F)c(Cl)c45)ncc23)C1 (stereo partly shown) : 71

I would be grateful if you could share the reported IC50 for O=C1C[C@]2(CCCN(c3nc(OC[C@@]45CCCN4C[C@H](F)C5)nc4c(F)c(-c5cc(O)cc6ccc(F)c(Cl)c56)ncc34)C2)N1 .
141

I would be grateful if you could share the reported IC50 for CCc1c(F)ccc2cc(O)cc(-c3ncc4c(NC[C@H]5COC[C@H]5O)nc(OC[C@@]56CCCN5C[C@H](F)C6)nc4c3F)c12 (single isomer, unassigned) .
3520

Data provenance: patent US12398154B2
